target: recombinant cynomolgus monkey CD3ε/δ heterodimer (cynomolgus monkey) (UniProt Q95LI5); experiment: ELISA, coated CD3ε/δ
Sequence (Q95LI5 22-117, stated change not applied, chain 1 of 2): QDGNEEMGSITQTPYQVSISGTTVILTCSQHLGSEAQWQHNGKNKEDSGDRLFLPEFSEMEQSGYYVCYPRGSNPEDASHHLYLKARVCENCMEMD
Sequence (Q95LI8 22-105, stated change not applied, chain 2 of 2, further chain): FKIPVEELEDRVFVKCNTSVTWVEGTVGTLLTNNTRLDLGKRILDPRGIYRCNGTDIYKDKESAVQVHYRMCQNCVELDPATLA
Threshold check on Absorbance (450 nm): at or above 2 gives condition met, strictly below gives condition not met.

Completed entries (count: 4):
D12 (antibody, human IgG1, lambda, L234A L235A, V domains shown) VH: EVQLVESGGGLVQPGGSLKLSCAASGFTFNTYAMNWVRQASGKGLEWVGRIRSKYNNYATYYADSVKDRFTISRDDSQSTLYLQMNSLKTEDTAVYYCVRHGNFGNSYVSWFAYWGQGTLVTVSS VL: QAVVTQEPSLTVSPGGTVTLTCRSSTGAVTTSNYANWVQQKPGQAPRTLIGGTNKRAPWTPARFSGSLLGDKAALTLSGAQPEDEAEYYCALWYSNLWVFGGGTKLTVLG ... condition not met
A08 (antibody, human IgG1, lambda, L234A L235A, V domains shown) VH: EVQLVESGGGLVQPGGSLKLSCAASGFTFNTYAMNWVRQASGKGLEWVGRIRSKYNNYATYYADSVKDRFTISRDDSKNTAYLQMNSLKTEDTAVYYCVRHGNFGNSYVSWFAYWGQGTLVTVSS VL: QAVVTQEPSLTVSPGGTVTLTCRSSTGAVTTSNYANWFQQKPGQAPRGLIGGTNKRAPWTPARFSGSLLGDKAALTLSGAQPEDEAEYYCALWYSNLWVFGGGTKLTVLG ... condition met
D09 (antibody, human IgG1, lambda, L234A L235A, V domains shown) VH: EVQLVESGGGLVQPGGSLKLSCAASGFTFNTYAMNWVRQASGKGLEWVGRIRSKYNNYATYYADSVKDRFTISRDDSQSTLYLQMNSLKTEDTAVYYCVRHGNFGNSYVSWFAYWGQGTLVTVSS VL: QAVVTQEPSLTVSPGGTVTLTCRSSTGAVTTSNYANWVQQKPGQAPRTLIYGTNKRAPWTPARFSGSLLGGKAALTLSGAQPEDEAEYYCALWYSNLWVFGGGTKLTVLG ... condition not met
E15 (antibody, human IgG1, lambda, L234A L235A, V domains shown) VH: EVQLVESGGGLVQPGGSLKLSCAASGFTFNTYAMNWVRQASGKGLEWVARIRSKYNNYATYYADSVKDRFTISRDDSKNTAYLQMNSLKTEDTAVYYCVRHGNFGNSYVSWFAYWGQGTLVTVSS VL: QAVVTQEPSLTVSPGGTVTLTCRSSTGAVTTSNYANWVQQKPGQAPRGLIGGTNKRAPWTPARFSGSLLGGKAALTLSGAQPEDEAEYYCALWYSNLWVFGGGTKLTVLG ... condition met

# next binder below
Query string: Test whether the binder D15 (antibody, human IgG1, lambda, L234A L235A, V domains shown) VH: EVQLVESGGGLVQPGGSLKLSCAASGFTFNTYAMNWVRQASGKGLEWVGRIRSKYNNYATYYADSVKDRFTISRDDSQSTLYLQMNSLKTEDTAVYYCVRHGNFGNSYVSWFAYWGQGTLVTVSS VL: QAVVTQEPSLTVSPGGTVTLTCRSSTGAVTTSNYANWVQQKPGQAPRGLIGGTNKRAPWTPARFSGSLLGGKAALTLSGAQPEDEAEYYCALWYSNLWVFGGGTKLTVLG records Absorbance (450 nm) of 2 or higher.
Result string: condition met
